These measurements were taken from patent US20260315446A1.

Tested on: Aspergillus fumigatus
run.description: MEC assay (Example 3)
particulars: strain akuB^Ku80
Classify as follows. Reported MEC against Aspergillus fumigatus (akuB^Ku80) greater than or equal to 1 µg/mL: Fulfilled. Reported MEC against Aspergillus fumigatus (akuB^Ku80) below: Not fulfilled.

Check out these entries, answers already filled in.
1. CC[C@@H]1/C=C(\C)C[C@H](C)C[C@H](OC)[C@H]2O[C@@](O)(C(=O)C(=O)N3CCCC[C@H]3C(=O)O[C@H](/C(C)=C/C3CC[C@@H](O)[C@H](OC)C3)[C@H](C)[C@@H](O)C/C1=N/NS(C)(=O)=O)[C@H](C)C[C@@H]2OC (stereo partly shown) | Fulfilled
2. CC[C@@H]1/C=C(\C)C[C@H](C)C[C@H](OC)[C@H]2O[C@@](O)(C(=O)C(=O)N3CCCC[C@H]3C(=O)O[C@H](/C(C)=C/C3CC[C@@H](O)[C@H](OC)C3)[C@H](C)[C@@H](O)C/C1=N/NC(=O)c1ccc(F)cc1)[C@H](C)C[C@@H]2OC (stereo partly shown) | Fulfilled
3. CC[C@@H]1/C=C(\C)C[C@H](C)C[C@H](OC)[C@H]2O[C@@](O)(C(=O)C(=O)N3CCCC[C@H]3C(=O)O[C@H](/C(C)=C/C3CC[C@@H](O)[C@H](OC)C3)[C@H](C)[C@@H](O)C/C1=N/NC(N)=O)[C@H](C)C[C@@H]2OC (stereo partly shown) | Fulfilled
4. C=CCC1C=C(C)CC(C)CC(OC)C2OC(O)(C(=O)C(=O)N3CCCCC3C(=O)OC(C(C)=CC3CCC(O)C(OC)C3)C(C)C(O)CC1=O)C(C)CC2OC (stereo not shown) [FK506, reference compound] | Not fulfilled
5. CC[C@@H]1/C=C(\C)C[C@H](C)C[C@H](OC)[C@H]2O[C@@](O)(C(=O)C(=O)N3CCCC[C@H]3C(=O)O[C@H](/C(C)=C/C3CC[C@@H](O)[C@H](OC)C3)[C@H](C)[C@@H](O)C/C1=N/NC(=O)c1ccc(N)cc1)[C@H](C)C[C@@H]2OC (stereo partly shown) | Not fulfilled
6. CC[C@@H]1/C=C(\C)C[C@H](C)C[C@H](OC)[C@H]2O[C@@](O)(C(=O)C(=O)N3CCCC[C@H]3C(=O)O[C@H](/C(C)=C/C3CC[C@@H](O)[C@H](OC)C3)[C@H](C)[C@@H](O)C/C1=N/NC(=O)c1cccc(C(=O)NN)c1)[C@H](C)C[C@@H]2OC (stereo partly shown) | Not fulfilled
7. CC[C@@H]1/C=C(\C)C[C@H](C)C[C@H](OC)[C@H]2O[C@@](O)(C(=O)C(=O)N3CCCC[C@H]3C(=O)O[C@H](/C(C)=C/C3CC[C@@H](O)[C@H](OC)C3)[C@H](C)[C@@H](O)C/C1=N/NC(=O)c1ccncc1)[C@H](C)C[C@@H]2OC (stereo partly shown) | Fulfilled
8. CC[C@@H]1/C=C(\C)C[C@H](C)C[C@H](OC)[C@H]2O[C@@](O)(C(=O)C(=O)N3CCCC[C@H]3C(=O)O[C@H](/C(C)=C/C3CC[C@@H](O)[C@H](OC)C3)[C@H](C)[C@@H](O)C/C1=N/NC(=O)c1ccc3ccccc3c1)[C@H](C)C[C@@H]2OC (stereo partly shown) | Not fulfilled

Ask | In plain terms: is recorded MEC against Aspergillus fumigatus (akuB^Ku80) at least 1 µg/mL for CCNN=C1C[C@H](O)[C@@H](C)[C@@H](/C(C)=C/[C@@H]2CC[C@@H](O)[C@H](OC)C2)OC(=O)[C@@H]2CCCCN2C(=O)C(=O)[C@]2(O)O[C@H]([C@@H](OC)C[C@@H](C)C/C(C)=C/[C@H]1CC)[C@@H](OC)C[C@H]2C ?
Reply | Fulfilled

Ask | Kindly determine if MEC against Aspergillus fumigatus (akuB^Ku80) recorded for CC[C@@H]1/C=C(\C)C[C@H](C)C[C@H](OC)[C@H]2O[C@@](O)(C(=O)C(=O)N3CCCC[C@H]3C(=O)O[C@H](/C(C)=C/[C@@H]3CC[C@@H](O)[C@H](OC)C3)[C@H](C)[C@@H](O)CC1=NNS(=O)(=O)c1ccc(C)cc1)[C@H](C)C[C@@H]2OC is above or exactly 1 µg/mL.
Reply | Fulfilled

Ask | hey, is MEC against Aspergillus fumigatus (akuB^Ku80) for this one >= 1 µg/mL? CC[C@@H]1/C=C(\C)C[C@H](C)C[C@H](OC)[C@H]2O[C@@](O)(C(=O)C(=O)N3CCCC[C@H]3C(=O)O[C@H](/C(C)=C/C3CC[C@@H](O)[C@H](OC)C3)[C@H](C)[C@@H](O)C/C1=N/NC(=O)OC)[C@H](C)C[C@@H]2OC (stereo partly shown)
Reply | Fulfilled

Ask | Test whether the molecule CC[C@@H]1/C=C(\C)C[C@H](C)C[C@H](OC)[C@H]2O[C@@](O)(C(=O)C(=O)N3CCCC[C@H]3C(=O)O[C@H](/C(C)=C/[C@@H]3CC[C@@H](O)[C@H](OC)C3)[C@H](C)[C@@H](O)CC1=NNC(=O)CO)[C@H](C)C[C@@H]2OC records MEC against Aspergillus fumigatus (akuB^Ku80) of 1 µg/mL or higher.
Reply | Fulfilled

Ask | Please check the record CC[C@@H]1/C=C(\C)C[C@H](C)C[C@H](OC)[C@H]2O[C@@](O)(C(=O)C(=O)N3CCCC[C@H]3C(=O)O[C@H](/C(C)=C/[C@@H]3CC[C@@H](O)[C@H](OC)C3)[C@H](C)[C@@H](O)CC1=NNC(=O)NN)[C@H](C)C[C@@H]2OC and state if its MEC against Aspergillus fumigatus (akuB^Ku80) is at or above 1 µg/mL.
Reply | Fulfilled
